Where do these numbers come from? They come from PubChem BioAssay AID1159580.

Assign normalized growth to each entry below.
test: chemical genetic growth profiling, strain panel (AID 1159580);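 also: tested at 20 µM; growth read once vehicle control cultures reached saturation at 30 °C; 1 = growth at the plate median or of vehicle wells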; settings: S. cerevisiae deletion strains, growth OD, locus YER110C, stronger effect = lower value
In all, about 5,500 compounds went through this assay and about 2,000 (36%) were called active. Inconclusive results (about 18%) are left out. The list shows a part of the results.
Could you keep your reply to the number by itself?

Input: I am curious: what normalized growth value has been reported for CNC(=O)Oc1cccc2c1OC(C)(C)O2 ?
Output: 1

Input: Field request: normalized growth | item: COc1ccc2c3c1OC1C(O)CC=C4C(C2)N(C)CCC431 (stereo not drawn)
Output: 1.02

Input: Item O=C(O[C@@H]1Cc2c(O)cc(O)cc2O[C@@H]1c1cc(O)c(=O)c2c(O)c(O)cc([C@H]3Oc4cc(O)cc(O)c4C[C@H]3O)c2c1)c1cc(O)c(O)c(O)c1 has what recorded normalized growth?
Output: 1.03

Input: // returns reported normalized growth for input CCCCCCC(C)OC(=O)COc1ccc(Cl)cc1Cl (stereo not drawn)
Output: 1

Input: Quick check: normalized growth of CC12CCC3c4ccc(OCc5ccccc5)cc4CCC3C1C[C@@H](O)[C@@H]2O (stereo partly drawn) ?
Output: 0.0937

Input: Please report the recorded normalized growth for Cc1cc(C2CCCCC2)n(O)c(=O)c1 .
Output: 0.0812

Input: What measured normalized growth goes with CCOC(=O)c1c(C)cc(OC)cc1O ?
Output: 0.899

Input: Looking for the measured normalized growth of CC1(C)C(=O)C=C[C@@]2(C)C1C[C@@H](O)[C@]1(C)C2CC[C@@]2(C)[C@H](c3ccoc3)OC(=O)[C@H]3O[C@]321 (stereo partly drawn) , can you help?
Output: 0.968

Input: What measured normalized growth goes with COC(=O)[C@]1(C)CCC[C@]2(C)c3ccc(C(C)C)cc3C(=O)CC12 (stereo partly drawn) ?
Output: 1.02

Input: Need normalized growth, item C[N+](C)(C)CC(O)CC(=O)O (stereo not drawn)
Output: 0.991

Input: Give the measured normalized growth of COc1ccc2c(c1)CCC1C2CCC2(C)C1C[C@@H](O)C2O (stereo partly drawn) .
Output: 0.983

Input: # lookup: normalized growth of CC1(C)C=CC(=O)[C@@]2(C)C1CC(=O)[C@]1(C)C2CC[C@@]2(C)[C@H](c3ccoc3)OC(=O)C3OC321 (stereo partly drawn)
Output: 0.959

Input: Consider the molecule CN1C(C)(C)CCCC1(C)C and give its measured normalized growth.
Output: 0.992

Input: Which measured normalized growth value corresponds to CC(=O)OC(C)C[N+](C)(C)C (stereo not drawn) ?
Output: 1.02

Input: Any idea what normalized growth was measured for NC(=O)NCCCC(N)C(=O)O (stereo not drawn) ?
Output: 0.988

Input: Look up normalized growth for this molecule: CC1(C)C2CC(=O)[C@]3(C)C(CC[C@@]4(C)[C@H](c5ccoc5)OC(=O)C5OC543)[C@@]2(C)[C@@H](O)C[C@H]1O (stereo partly drawn)
Output: 0.988

Input: Param item = CCN1C[C@]2(C)CC[C@H](OC)[C@]34C2[C@H](O)[C@]2(OCO[C@@]25C[C@H](OC)[C@H]2C[C@]3(O)C5[C@H]2O)C14 ; retrieve measured normalized growth.
Output: 1.01

Input: // lookup normalized growth for Oc1cc2c(cc1O)C1c3ccc(O)c(O)c3OCC1(O)C2 (stereo not drawn)
Output: 0.999

Input: What does the record list as normalized growth for CCCCC1C(=O)N(c2ccccc2)N(c2ccc(O)cc2)C1=O (stereo not drawn) ?
Output: 0.965

Input: Could you share which normalized growth value was measured for CC[n+]1c(-c2ccccc2)c2cc(N)ccc2c2ccc(N)cc21 ?
Output: 0.967

Input: Record request: normalized growth value, item CC12CCC3c4ccc(OC(=O)c5ccccc5)cc4CCC3C1CCC2O (stereo not drawn)
Output: 1

Input: Fill in: normalized growth of NC(=O)NCC(N)C(=O)O (stereo not drawn) is ___
Output: 0.978

Input: Field request: normalized growth | item: Cc1cc(OC(=O)c2c(C)cc(OC(=O)c3c(C)cc(O)cc3O)cc2O)cc(O)c1C(=O)O
Output: 0.986

Input: Which normalized growth is listed for CC(=O)Oc1ccc2c(c1OC(C)=O)OCC1(O)Cc3c(cc(OC(C)=O)c(OC(C)=O)c3OC(C)=O)C21 (stereo not drawn) ?
Output: 0.991

Input: Item NC(=O)c1ncn([C@@H]2O[C@H](CO)[C@@H](O)[C@H]2O)n1 has what recorded normalized growth?
Output: 0.989

Input: Which normalized growth value belongs to OCC(O)C(O)C(O)C(O)C(O)CO (stereo not drawn) ?
Output: 0.97

Input: Can you share its normalized growth? I mean this molecule: COc1cc(OC)c2c(=O)c(O)c(-c3ccc(OC)c(OC)c3)oc2c1
Output: 1.02

Input: normalized growth lookup needed for CC(C)c1c(O)ccc2c1CCC1C(C)(C)CCC[C@]21C (stereo partly drawn) , thanks.
Output: 0.713

Input: What does the data say about its normalized growth? Entry: COC(=O)[C@@]1(C)CCC[C@]2(C)c3ccc(O)c(C(C)C)c3CCC12 (stereo partly drawn)
Output: 1

Input: Item Oc1ccc2c(c1)OCC1(O)Cc3cc(O)c(O)cc3C21 (stereo not drawn) has what recorded normalized growth?
Output: 0.996

Input: Reported normalized growth for O=c1c(O)c(-c2cc(O)c(O)c(O)c2)oc2cc(O)cc(O)c12 : what is it?
Output: 1.03

Input: Look up normalized growth for this molecule: CCCCCCCCCCCCCCCCCC(=O)OC(CC(=O)O)C[N+](C)(C)C (stereo not drawn)
Output: 0.156

Input: I would be grateful if you could share the reported normalized growth for CCC(=O)c1c(O)cc(O)cc1O .
Output: 0.979

Input: Requested field: normalized growth. Item: COc1ccc(-c2oc3c(CC=C(C)C)c(O[C@@H]4O[C@H](CO)[C@@H](O)[C@H](O)[C@H]4O)cc(O)c3c(=O)c2O[C@@H]2O[C@@H](C)[C@H](O)[C@@H](O)[C@H]2O)cc1
Output: 0.966

Input: Query: normalized growth; subject: C[C@]12CCC3c4ccc(O)cc4CCC3C1C[C@@H](O)[C@@H]2O (stereo partly drawn)
Output: 0.983

Input: Quick one: normalized growth for CC(C)c1c(O)c(-c2cc3c(c(C(C)C)c2O)CCC2C(C)(C)CCC[C@]32C)cc2c1CCC1C(C)(C)CCC[C@]21C (stereo partly drawn) ?
Output: 1.02

Input: If you can, please state the reported normalized growth value of CC(=O)Oc1ccc2c(c1C(C)C)CCC1C(C)(C)CCC[C@]21C (stereo partly drawn) .
Output: 0.998

Input: // normalized growth lookup, key: COC(=O)c1c(C)cc(OC)cc1O
Output: 0.947
